- subject of test: tubulin (Sus scrofa, UniProt P02550+P02554)
- Construct: The procedure used is modified from Shelanski et al
- Sequence (P02550 whole entry): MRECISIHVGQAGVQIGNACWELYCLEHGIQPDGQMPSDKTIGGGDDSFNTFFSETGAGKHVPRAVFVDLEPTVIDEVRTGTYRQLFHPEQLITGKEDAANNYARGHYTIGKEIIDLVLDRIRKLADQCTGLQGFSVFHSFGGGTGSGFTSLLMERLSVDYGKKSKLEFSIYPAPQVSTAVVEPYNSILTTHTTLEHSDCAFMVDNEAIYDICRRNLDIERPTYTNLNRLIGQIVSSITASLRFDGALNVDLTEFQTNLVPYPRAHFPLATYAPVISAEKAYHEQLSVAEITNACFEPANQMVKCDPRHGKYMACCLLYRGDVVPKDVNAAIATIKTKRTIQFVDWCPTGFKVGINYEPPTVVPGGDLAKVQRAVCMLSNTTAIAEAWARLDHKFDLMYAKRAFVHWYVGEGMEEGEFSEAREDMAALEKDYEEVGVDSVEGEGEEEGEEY
- Sequence (P02554 whole entry): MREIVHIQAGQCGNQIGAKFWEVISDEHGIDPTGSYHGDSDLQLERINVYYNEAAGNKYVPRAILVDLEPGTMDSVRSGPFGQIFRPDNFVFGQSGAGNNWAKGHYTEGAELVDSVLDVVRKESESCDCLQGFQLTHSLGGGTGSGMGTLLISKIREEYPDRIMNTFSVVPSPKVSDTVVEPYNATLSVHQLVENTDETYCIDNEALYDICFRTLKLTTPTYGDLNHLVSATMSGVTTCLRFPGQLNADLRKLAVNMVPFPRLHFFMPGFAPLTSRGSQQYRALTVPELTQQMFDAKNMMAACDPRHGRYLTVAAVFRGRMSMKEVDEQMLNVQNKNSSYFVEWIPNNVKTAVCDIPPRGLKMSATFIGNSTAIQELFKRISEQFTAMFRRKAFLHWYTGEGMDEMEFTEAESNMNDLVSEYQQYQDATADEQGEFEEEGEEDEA
- assay method text: Tubulin assembly assay (tubulin binding)
reported property: pIC50
The read-out pIC50 is expressed as -log10 of concentration in moles per litre.

Value wanted: pIC50 (tubulin (Sus scrofa, UniProt P02550+P02554)) of entry COc1ccc(C2=CC(=O)CCc3c2cc(OC)c(OC)c3OC)cc1O [Compound 1]
5.98
